- protocol summary: chemical genetic growth profiling, strain panel (AID 1159580);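 further: tested at 20 µM; growth read once vehicle control cultures reached saturation at 30 °C; 1 = growth at the plate median or of vehicle wells; lower values mean less growth of the strain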
- conditions: S. cerevisiae deletion strains, growth OD, locus YGL227W, strain vid30, active compounds read low
The campaign covered roughly 5,500 compounds. About 2,000 (36%) were called active. Roughly 18% stayed inconclusive and do not appear here. The list shows a part of the results.
measured metric: normalized growth
Respond numerically, and do not add a unit to the figure.

Examples from the recorded data:
{"molecule": "CC(C)(Oc1ccc(C2CC2(Cl)Cl)cc1)C(=O)O (stereo not given)", "normalized growth": 1}
{"molecule": "O=c1[nH]oc2c1CCNC2", "normalized growth": 0.994}
{"molecule": "Cc1cccc(C)c1NC1=NCCCS1", "normalized growth": 1}
{"molecule": "COc1ccc(CCN2CCC(Nc3nc4ccccc4n3Cc3ccc(F)cc3)CC2)cc1", "normalized growth": 0.981}
{"molecule": "C[N+]1(C)C2CC(OC(=O)[C@@H](CO)c3ccccc3)CC1C1OC12 (stereo not given in full)", "normalized growth": 0.978}

What value of measured normalized growth is listed for Nc1ccc(N=Nc2ccccc2)c(N)n1 ?
0.83

Same again, this time with COc1cc(OC)c2c(=O)c(-c3ccccc3)coc2c1
1

One more molecule: CCOC(=O)[C@H](CCc1ccccc1)N[C@@H](C)C(=O)N1[C@H](C(=O)O)C[C@@H]2CCC[C@@H]21
0.979

Thanks! And CC(C)NCC(O)c1cc(O)cc(O)c1 (stereo not given) ?
0.995

Please answer likewise for C=C1C(=O)O[C@@H]2C[C@@]3(C)CCC[C@H](C)C3=C[C@H]12
0.912

Follow-up entry: O=S1OCC2C(CO1)C1(Cl)C(Cl)=C(Cl)C2(Cl)C1(Cl)Cl (stereo not given)
0.987

Please give the result for CC1OC1P(=O)(O)O (stereo not given) too.
1

Would you mind doing COc1ccc(-c2coc3cc(OC)cc(OC)c3c2=O)cc1 as well?
0.992

Subsequent entry: COc1cc2occ(-c3ccccc3)c(=O)c2c(OC)c1C
0.989

Also check CC(C(=O)O)c1ccc(C(=O)c2cccs2)cc1 (stereo not given)
0.99

What do you get for C=CC(N)CCC(=O)O (stereo not given) ?
0.99

Now give it for NC(N)=NS(=O)(=O)c1ccc(N)cc1 too.
0.974

What do we get for COc1cc(-c2coc3cc(OC)c(OC)c(OC)c3c2=O)cc(OC)c1OC ?
0.99

Try Nc1ccn(C2O[C@H](CO)[C@@H](O)[C@@H]2O)c(=O)n1 (stereo not given in full) next.
0.995

One more molecule: N[C@@H](CC(=O)N1CCn2c(nnc2C(F)(F)F)C1)Cc1cc(F)c(F)cc1F
0.967

Now the same for C[C@H]1COC2=C1C(=O)C(=O)c1c2ccc2c1CCCC2(C)C
0.546

Field entry: CCNC(=O)CC[C@H](N)C(=O)O
0.992

What do we get for CCOC(=O)c1ccc(O)cc1 ?
1.01

O=C1OC(c2ccc(O)cc2)(c2ccc(O)cc2)c2ccccc21 , same question.
0.987

Moving on to the next molecule: Clc1cccc(Cl)c1NC1=NCCN1
0.992

###

Catalogue of normalized growth readings, one per entry.
- protocol summary: chemical genetic growth profiling, strain panel (AID 1159580)
- conditions: S. cerevisiae deletion strains, growth OD, locus YEL061C, strain CIN8, active compounds read low
Out of some 5,500 compounds screened, about 2,000 (36%) were called active. Inconclusive results (about 18%) are left out. The list shows a part of the results.
Provide a numeric answer; units are not to be included.

Known results for compounds:
{"compound": "CC12NC(=O)NC1(C)NC(=O)N2 (stereo not given)", "value reported": 1.03}
{"compound": "OC(CN1CCN(c2nc3ccc(Cl)cc3s2)CC1)CN1CCCN(c2ncc(C(F)(F)F)cc2Cl)CC1 (stereo not given)", "value reported": 0.0536}
{"compound": "CC1C[C@H]2CC(=O)[C@H]3CCCN4CCC[C@H]2[C@]34C1 (stereo not given in full)", "value reported": 1.01}
{"compound": "C=C1C(=O)O[C@@H]2C3O[C@]3(C)CC/C=C(\\C)CC[C@@H]12 (stereo not given in full)", "value reported": 0.86}
{"compound": "C=C1C(=O)O[C@@H]2C[C@@]3(C)CCC[C@H](C)C3=C[C@H]12", "value reported": 0.916}

Attention now turns to another entry.
Look up normalized growth: O=c1cc[nH]c(=S)[nH]1
1.01

###

Entries and their normalized growth values follow.
- protocol summary: chemical genetic growth profiling, strain panel (AID 1159580);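 further: tested at 20 µM; growth read once vehicle control cultures reached saturation at 30 °C; 1 = growth at the plate median or of vehicle wells; lower values mean less growth of the strain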
- conditions: S. cerevisiae deletion strains, growth OD, locus YLR357W, strain rsc2, active compounds read low
Screen size: about 5,500 compounds; about 2,000 (36%) were called active. Inconclusive results (about 18%) are left out. Some of the results follow.
Field format: numeric only.

{"compound": "CCCCC(=O)Oc1ccccc1C(=O)O", "normalized growth": 0.96}
{"compound": "O=C1OC2(c3ccc(O)cc3Oc3cc(O)ccc32)c2ccccc21", "normalized growth": 1.01}
{"compound": "CCCOc1ccc(C(=O)OCCN(CC)CC)cc1N", "normalized growth": 1.01}

Query (compound): CC(C)NCC(O)c1cc(O)cc(O)c1 (stereo unspecified) ; field requested: normalized growth
0.974

And the next one, CO/N=C(\C(=O)N[C@@H]1C(=O)N2C(C(=O)O)=C(CSc3nc(=O)c(O)nn3C)CS[C@H]12)c1csc(N)n1 ?
0.893

Repeat for the following compound: COc1ccc2c(c1OC)C(=O)OC2[C@H]1c2c(cc3c(c2OC)OCO3)CCN1C (stereo partly specified)
0.997

Now this one: CCCCCCOc1ccccc1C(N)=O
1.07

Another compound to look at: C=C1C(=O)OC2CC1C(OC(C)=O)C/C(C)=C/CC/C(C)=C/CC[C@]2(C)O (stereo partly specified)
1.02

###

- protocol summary: chemical genetic growth profiling, strain panel (AID 1159580);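 further: tested at 20 µM; growth read once vehicle control cultures reached saturation at 30 °C; 1 = growth at the plate median or of vehicle wells; lower values mean less growth of the strain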
- conditions: S. cerevisiae deletion strains, growth OD, locus YML120C, strain ndi1
About 2,000 (36%) of roughly 5,500 compounds were called active. Not shown: some 18% with an inconclusive outcome. No stated cut-off is given here; in the data, active means normalized growth mostly below about 0.91 (no sharp cut-off); inconclusive means no clear call, values can overlap the other calls; inactive means mostly above about 0.92. The list shows a part of the results.
Tick one outcome: active, inactive

{"compound": "C=C1C(=O)O[C@@H]2C[C@@]3(C)CCC[C@H](C)C3=C[C@H]12", "qualitative label": "active"}
{"compound": "COc1ccc(-c2coc3cc(OC)cc(OC)c3c2=O)cc1", "qualitative label": "inactive"}
{"compound": "CCCOc1ccc(C(=O)OCCN(CC)CC)cc1N", "qualitative label": "inactive"}
{"compound": "CCCCOC(=O)c1ccc(N)cc1", "qualitative label": "active"}
{"compound": "COc1cc(-c2coc3cc(OC)c(OC)c(OC)c3c2=O)cc(OC)c1OC", "qualitative label": "inactive"}

Hi, sorry to bother you, what did the test record for CCCCNc1ccc(C(=O)OCCN(C)C)cc1 ?
inactive

Continue with CC[C@H](C)C(=O)O[C@H]1CCC=C2C=C[C@H](C)C(CCC3C[C@@H](O)CC(=O)O3)[C@H]21 (some centres undefined)
inactive

###

// reported normalized growth for each item listed
- protocol summary: chemical genetic growth profiling, strain panel (AID 1159580);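 further: tested at 20 µM; growth read once vehicle control cultures reached saturation at 30 °C; 1 = growth at the plate median or of vehicle wells; lower values mean less growth of the strain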
- conditions: S. cerevisiae deletion strains, growth OD, locus YNL067W, strain RPL9B, active compounds read low
Out of some 5,500 compounds screened, about 2,000 (36%) were called active. About 18% were inconclusive and are not listed. This is one part of the list.

Here are 5 compounds together with their reported answers.
{"compound": "OCc1ccccc1O", "value reported": "1.01 (inactive)"}
{"compound": "CC(=O)OCC(COC(C)=O)OC(C)=O", "value reported": "1.03 (inactive)"}
{"compound": "CCCCOC(=O)c1ccccc1C(=O)OCCCC", "value reported": "0.979 (inactive)"}
{"compound": "COc1cc(-c2coc3cc(OCc4ccccc4)c(OC)c(O)c3c2=O)cc(O)c1OC", "value reported": "0.829 (active)"}
{"compound": "Cc1cc(-c2ccccc2)nnc1NCCN1CCOCC1", "value reported": "0.985 (inactive)"}

Entry under review: C#CCCCCCCCCCCCC(O)CC(O)COC(C)=O (stereo not drawn) . Reported normalized growth?
0.928 (inactive)

And then Oc1ccc(Cl)cc1Cc1cc(Cl)ccc1O , what is it?
0.0779 (active)

Then what about the compound CC(=O)OCC(OC(C)=O)C(OC(C)=O)C(OC(C)=O)C(OC(C)=O)C(COC(C)=O)OC(C)=O (stereo not drawn) ?
1.01 (inactive)

Now this one: CCCCOC(=O)c1ccc(N)cc1
0.907 (inactive)

Proceed to CCCCNc1ccc(C(=O)OCCN(C)C)cc1
1.01 (inactive)

Entry to check: CC1(C)C2CC(=O)[C@]3(C)C(CC[C@@]4(C)[C@H](c5ccoc5)OC(=O)[C@H]5O[C@]543)[C@@]2(C)C=C[C@@H]1O (stereo partly drawn)
0.97 (inactive)

Also, COc1ccc2c(c1)O[C@H]1c3ccc(OC)cc3OC[C@@H]21 please.
0.989 (inactive)

And for COc1cc([C@@H]2c3cc4c(c(O)c3C[C@H]3COC(=O)[C@@H]32)OCO4)cc(OC)c1OC ?
1.02 (inactive)
